# key: entry, value: Mean of Inhibition %
Test system: M. tuberculosis (RCMB 010126)
Test: microplate Alamar blue assay (MABA), in vitro antimycobacterial activity
Format: cell-based, Mycobacterium tuberculosis
Settings: M. tuberculosis RCMB 010126, MABA; test concentration not stated

{"compound": "Cc1nc(-c2ccc(Br)cc2)ccc1C(=O)NN", "Mean of Inhibition %, %": 20.63}
{"compound": "Cc1nc(-c2ccc(F)cc2)ccc1C(=O)N/N=C1\\C(=O)Nc2ccc(Cl)cc21", "Mean of Inhibition %, %": 52.63}
{"compound": "Cc1nc(-c2cccs2)ccc1C(=O)NN", "Mean of Inhibition %, %": 22.63}
{"compound": "Cc1nc(-c2ccc(F)cc2)ccc1C(=O)N/N=C1\\C(=O)Nc2ccc(Br)cc21", "Mean of Inhibition %, %": 77.42}
{"compound": "COc1ccc(-c2ccc(C(=O)NN)c(C)n2)cc1", "Mean of Inhibition %, %": 42.63}
{"compound": "NC(=O)c1cnccn1 [Pyrazinamid, pyrazinamide, reference compound]", "Mean of Inhibition %, %": 93.25}

* * *

System: M. tuberculosis (RCMB 010126)
Assay: microplate Alamar blue assay (MABA), in vitro antimycobacterial activity
Format: cell-based, Mycobacterium tuberculosis
Settings: M. tuberculosis RCMB 010126, MABA; test concentration not stated

{"structureNotation": "COc1ccc(-c2ccc(C(=O)NN)c(C)n2)cc1OC", "Mean of Inhibition %": "22.63 ± 0.16%"}
{"structureNotation": "Cc1nc(-c2ccc(Cl)cc2)ccc1C(=O)NN", "Mean of Inhibition %": "12.45 ± 0.58%"}
{"structureNotation": "Cc1nc(-c2ccccc2)ccc1C(=O)NN", "Mean of Inhibition %": "42.52 ± 0.63%"}
{"structureNotation": "Cc1nc(-c2ccc(Br)cc2)ccc1C(=O)NN=Cc1ccc2ccccc2c1", "Mean of Inhibition %": "14.32 ± 0.58%"}
{"structureNotation": "Cc1nc(-c2ccc(Br)cc2)ccc1C(=O)NN=Cc1ccc(Cl)cc1Cl", "Mean of Inhibition %": "13.57 ± 0.72%"}
{"structureNotation": "Cc1nc(-c2ccc(F)cc2)ccc1C(=O)N/N=C1\\C(=O)Nc2ccccc21", "Mean of Inhibition %": "31.44 ± 0.58%"}
{"structureNotation": "Cc1ccc(-c2ccc(C(=O)NN)c(C)n2)cc1", "Mean of Inhibition %": "36.33 ± 0.58%"}
{"structureNotation": "COc1cc(-c2ccc(C(=O)NN)c(C)n2)cc(OC)c1OC", "Mean of Inhibition %": "18.32 ± 0.72%"}

* * *

System: PC-3 prostate cancer cell line
Assay: SRB cytotoxicity assay, PC-3
Details: 72 h
pIC50: −log10 of the molar value.
endpoint: pIC50

{"compound": "Cc1nc(-c2ccc(F)cc2)ccc1C(=O)N/N=C1\\C(=O)Nc2ccccc21", "obsValue": "< 3.70"}
{"compound": "Cc1nc(-c2ccc(F)cc2)ccc1C(=O)N/N=C1\\C(=O)Nc2ccc(Cl)cc21", "obsValue": "< 3.70"}
{"compound": "COc1cccc2c1C(=O)c1c(O)c3c(c(O)c1C2=O)C[C@@](O)(C(=O)CO)C[C@@H]3O[C@H]1C[C@H](N)[C@H](O)[C@H](C)O1 [Doxorubicin, reference compound]", "obsValue": 5.19}
{"compound": "Cc1nc(-c2ccc(F)cc2)ccc1C(=O)N/N=C1\\C(=O)Nc2ccc(Br)cc21", "obsValue": "< 3.70"}

Value source: paper PMC6272317
